Tested on: SARS coronavirus 3C-like protease (3CLpro)
ASSAY COMMENT: SARS 3CLpro inhibition, confirmation assay, retest, confirmation, biochemical (AID 1879)
CONDITION INFO: QFRET protease activity assay, at 6 µM, active compounds read high
The other results are listed elsewhere or left out.
READOUT NAME: inhibition (%)
Form entry: value (%) — number only.

[[record]]
compound = "Cc1cccc2c1N(CCOc1ccccc1)C(=O)C2=O"
readout_name = "inhibition"
recorded_number = 19.1

[[record]]
compound = "Cc1cccc(C(=O)Nc2nnc(Cc3c[nH]c4ccccc34)s2)c1"
readout_name = "inhibition"
recorded_number = 5.81

[[record]]
compound = "COC(=O)c1cc(NC(=O)Cc2ccccc2[N+](=O)[O-])ccc1Cl"
readout_name = "inhibition"
recorded_number = 15


So what's the measured inhibition for this one? O=C1C(=O)N(CC2COc3ccccc3O2)c2ccccc21 (configuration not stated) 23.1

// returns reported inhibition for input O=Cc1cn(Cc2ccccc2)nc1-c1cccnc1 47.9

Given C[C@@]12C(=O)N(c3cccc(Br)c3)C(=O)N1[C@H](c1ccc(Cl)cc1)[C@@H]1C(=O)N(C3CCCCC3)C(=O)[C@@H]12 , state its recorded inhibition. 15.9

Give the measured inhibition of CN1CCN(CC(=O)Nc2cccc([N+](=O)[O-])c2)CC1 . 1.01

src = PubChem BioAssay AID1879
